This collection of values is drawn from patent US20260234738A1.

# Measurement Target: Bt-SARS-CoV-2 Spike Protein (RBD) (R319-F541).mFc (SARS-CoV-2)
# Measurement Description: Luminex beads, supernatant
Reported Endpoint: MFI (MFI)
The answer is to be given in MFI; state only the numeric part.

In the examples that follow, each entry is paired with its recorded MFI.
Binder	Value Units	Quantitative Result
mAb10914 (antibody, V domains shown) VH: EVQLVESGGGLVQPGGSLRLSCAASGLIVSRNYMIWVRQAPGKGLEWVSVIYSGGSTFYADSVKGRFTISRHNSKNTLYLQMNSLRAEDTAVYYCARDLGTGGMDVWGQGTTVTVSS VL: DIQLTQSPSFLSASVGDRVTITCWASQGISSYLAWYQQKPGKAPKLLIYAASTLQSGVPSRFSGSGSGTEFTLTISSLQPEDFATYYCQQLNSYPLTFGGGTKVEIKR	MFI	16000
mAb10985 (antibody, V domains shown) VH: EVQLVESGGGLVQPGRSLRLSCAASGFTFDDYAMHWVRQAPGKGLEWVSGISWNRGSIGYADSVKGRFTISRDNAKNSLYLQMSSLRAEDTALYYCAKDGERWDSVVVPSARNGMDVWGQGTTVTVSS VL: QSVLTQPPSVSGAPGQRVTISCTGSSSNIGAGYDVHWYQQLPGTAPKLLIYGNSNRPSGVPDRFSGSKSGTSASLAITGLQAEDEADYYCQSYDSSLSGSYVFGTGTKVTVLG	MFI	15500

Now consider a different binder.
**Query** Fill in the blank: the reported MFI of mAb10913 (antibody, V domains shown) VH: EVQLVESGGGLVQPGGSLRLSCAASGFTFRNYEMNWVRQAPGKGLEWVSYITSSGSTMYYADSVKGRFTISRDNAKNSLYLQMNSLRAEDTAVYYCARDGFYYYYAMDVWGQGTTVTVSS VL: QSVLTQPPSVSAAPGQKVTISCSGSSSNIGNNYVSWYQQLPGTAPKLLIYDNNKRPSGIPDRFSGSKSGTSATLGITGLQTGDEADYYCGTWDSSLSVGRVFGTGTKVTVLG is ____.
**Result** 16600
